These data points were gathered from PubChem BioAssay (NCI).

Test system: SN12C renal
Assay: NCI-60 one-dose screen, 48 h
Settings: 10 µM unless noted
The panel holds about 83,000 compounds, 20% with a hit somewhere; the sample as a whole holds those more often. The source made the active and inactive calls. How the source made its calls: active means growth percent below 10; inactive means the rest.
Field 'call' accepts t = active, f = inactive

Solved cases below.
                                   compound  label_value
0  C/C=C/C1OC23CCCCC2C(C#N)(C(=N)O3)C1(C#N)C#N (centres undefined)            f
1  COc1ccc(-c2cc(-c3ccc(Cl)cc3)nc(NCCCCNc3ccnc4cc(Cl)ccc34)n2)cc1            f
2  COc1cc2c(cc1OCCCN1CCN(CCCOc3cc4c(cc3OC)C(=O)N3C[C@H](F)C[C@H]3C=N4)CC1)N=C[C@@H]1C[C@@H](F)CN1C2=O            f
3  O=C(Nc1ccc(Nc2ccncc2)cc1)c1ccc([N+](=O)[O-])cc1            f
4  CNC(=O)c1cc(Oc2cccc3nc(NC(=O)Nc4cc(C(F)(F)F)cc(C(F)(F)F)c4)ccc23)ccn1            f
5  c1cc2ccc1CNCCN1CCNCc3ccc(cc3)Oc3ccc(cc3)CNCCN(CCNCc3ccc(cc3)O2)CCNCc2ccc(cc2)Oc2ccc(cc2)CNCC1            t
6  N/C(=N\c1nc2ccccc2[nH]1)NC(=O)Cc1cccc2ccccc12            f
7  COc1ccc(C2NC(=O)C(C#N)c3c2sc2c(F)cccc32)cc1 (centres undefined)            f

Proceed to the following item.
GET /call?item= `Cn1cc(-c2nnc(-c3cn(C)c4ncccc34)s2)c2ccccc21` returns the recorded outcome of this test.
f
